# System: Bacteroides uniformis
# assay-method-text: growth AUC relative to DMSO control (median of replicates) (fraction); higher = more growth (less inhibition), active = hit call of the paper
# condition-summary: 20 µM; 24 h
Field: growth AUC. Provide a value for each of the compounds that follow.
Format: numeric value only, no unit, no commentary.

Prompt: Return reported growth AUC; argument: CCNc1nc(NC(C)(C)C)nc(OC)n1
Completion: 0.985

Prompt: Return reported growth AUC; argument: C[S+](C)CCC(=O)O.[Cl-]
Completion: 1.01

Prompt: Return reported growth AUC; argument: O.O.O=[N+]([O-])c1ccc([O-])cc1.[Na+]
Completion: 0.989

Prompt: Return reported growth AUC; argument: CCNc1nc(N)nc(Cl)n1
Completion: 1.02

Prompt: Return reported growth AUC; argument: Cc1cccc(C)c1O
Completion: 1

Prompt: Return reported growth AUC; argument: COC1CCC2(CC1)NC(=O)C(c1cc(C)ccc1C)=C2OC1OC(CO)C(O)C(O)C1O (stereo not drawn)
Completion: 1.02

Prompt: Return reported growth AUC; argument: Cc1nn(C)c(OCC(=O)c2ccccc2)c1C(=O)c1ccc(Cl)cc1Cl
Completion: 0.852

Prompt: Return reported growth AUC; argument: Nc1cccc(O)c1
Completion: 1.03

Prompt: Return reported growth AUC; argument: CN(C)C(N)=O
Completion: 0.971

Prompt: Return reported growth AUC; argument: CC(C)N(C(=O)C(=O)O)c1ccccc1
Completion: 1.01

Prompt: Return reported growth AUC; argument: CC(=O)CC(c1ccccc1)c1c(O)c2ccccc2oc1=O (stereo not drawn)
Completion: 0.952

Prompt: Return reported growth AUC; argument: CN(C)C(=O)Nc1ccc(Oc2ccc(Cl)cc2)cc1
Completion: 1.02

Prompt: Return reported growth AUC; argument: CCOc1ccc(C2(C(=O)OC(C#N)c3cccc(Oc4ccccc4)c3)CC2(Cl)Cl)cc1 (stereo not drawn)
Completion: 0.957

* * *

# Test system: Bifidobacterium longum subsp. longum
# assay-method-text: growth AUC relative to DMSO control (median of replicates) (fraction); higher = more growth (less inhibition), active = hit call of the paper
# condition-summary: 20 µM; 24 h
measurement-name: growth AUC
Format: numeric value only, no unit, no commentary.

Prompt: Return reported growth AUC; argument: COc1ccc(Cl)c(Cl)c1Cl
Completion: 0.986

Prompt: Return reported growth AUC; argument: Cn1cc(C(=O)Nc2ccccc2-c2cc(F)c(F)c(F)c2)c(C(F)F)n1
Completion: 0.919

Prompt: Return reported growth AUC; argument: CNc1nc(NC(C)C)nc(SC)n1
Completion: 0.862

Prompt: Return reported growth AUC; argument: O=C(O)c1ccc(Cl)cc1Cl
Completion: 0.699

Prompt: Return reported growth AUC; argument: CCOc1ccc(C2(C(=O)OC(C#N)c3cccc(Oc4ccccc4)c3)CC2(Cl)Cl)cc1 (configuration not stated)
Completion: 0.911

Prompt: Return reported growth AUC; argument: CCOCCOC(=O)C(C)Oc1ccc(Oc2ncc(C(F)(F)F)cc2Cl)cc1 (configuration not stated)
Completion: 1.01

Prompt: Return reported growth AUC; argument: C=O
Completion: 0.984

Prompt: Return reported growth AUC; argument: CNC(=O)Sc1ccc(OS(C)(=O)=O)cc1
Completion: 0.847

Prompt: Return reported growth AUC; argument: CCCCCCCC/C=C\CCCCCCCCCCCC(=O)O
Completion: 0.902

Prompt: Return reported growth AUC; argument: CC(C)CCCCCCc1ccc(O)cc1
Completion: 1.03

Prompt: Return reported growth AUC; argument: CCc1cccc(C)c1NC(C)C(=O)O (racemic)
Completion: 1.04

Prompt: Return reported growth AUC; argument: O=C(O)Cc1c(Cl)ccc(Cl)c1Cl
Completion: 1.04

* * *

Field: growth AUC. Provide a value for each of the compounds that follow.
# Tested on: Parabacteroides merdae
# assay-method-text: growth AUC relative to DMSO control (median of replicates) (fraction); higher = more growth (less inhibition), active = hit call of the paper
# condition-summary: 20 µM; 24 h

Prompt: Form field: growth AUC recorded for Nc1cc(Cl)nc(C(=O)O)c1Cl with Parabacteroides merdae (enter value)
Completion: 1.02 (inactive)

Prompt: Form field: growth AUC recorded for c1ccc(Sc2ccccc2)cc1 with Parabacteroides merdae (enter value)
Completion: 1 (inactive)

Prompt: Form field: growth AUC recorded for c1ccc2cc3c(ccc4ccccc43)cc2c1 with Parabacteroides merdae (enter value)
Completion: 0.995 (inactive)

Prompt: Form field: growth AUC recorded for CCCCCCCC/C=C\CCCCCCCCCCCC(=O)O with Parabacteroides merdae (enter value)
Completion: 1.01 (inactive)

Prompt: Form field: growth AUC recorded for CCOC(=O)C1=NOC(c2ccccc2)(c2ccccc2)C1 with Parabacteroides merdae (enter value)
Completion: 0.948 (inactive)

Prompt: Form field: growth AUC recorded for COc1nc(N)nc(C(F)(F)F)n1 with Parabacteroides merdae (enter value)
Completion: 1.02 (inactive)

Prompt: Form field: growth AUC recorded for COC(=O)[C@@H](C)Oc1ccc(Oc2ncc(C(F)(F)F)cc2Cl)cc1 with Parabacteroides merdae (enter value)
Completion: 1.01 (inactive)

Prompt: Form field: growth AUC recorded for Br[C@@H]1CC[C@H](Br)[C@H](Br)CC[C@@H](Br)[C@@H](Br)CC[C@H]1Br with Parabacteroides merdae (enter value)
Completion: 0.351 (active)

Prompt: Form field: growth AUC recorded for CCC([O-])=C1C(=O)CC(C(=O)[O-])CC1=O.[Ca+2] (centres undefined) with Parabacteroides merdae (enter value)
Completion: 0.996 (inactive)

Prompt: Form field: growth AUC recorded for O=c1cc(Cl)[nH]nc1-c1ccccc1 with Parabacteroides merdae (enter value)
Completion: 0.982 (inactive)

Prompt: Form field: growth AUC recorded for CN(C)c1ccc(N=NS(=O)(=O)[O-])cc1.[Na+] with Parabacteroides merdae (enter value)
Completion: 0.996 (inactive)

Prompt: Form field: growth AUC recorded for CC1=C(c2ccccc2)C(=O)N(C(C)(C)c2cc(Cl)cc(Cl)c2)CO1 with Parabacteroides merdae (enter value)
Completion: 0.811 (inactive)

Prompt: Form field: growth AUC recorded for O=C(O)COc1cc(N2C(=O)C3=C(CCCC3)C2=O)c(F)cc1Cl with Parabacteroides merdae (enter value)
Completion: 1.04 (inactive)

Prompt: Form field: growth AUC recorded for S=C([S-])NCCNC(=S)[S-].[Mn+2] with Parabacteroides merdae (enter value)
Completion: 1.03 (inactive)

Prompt: Form field: growth AUC recorded for CCCCC(CC)CN1C(=O)C2C(C1=O)[C@H]1C=C[C@@H]2C1 (mixture of isomers) with Parabacteroides merdae (enter value)
Completion: 0.977 (inactive)

Prompt: Form field: growth AUC recorded for CCc1cccc(C)c1N(COC(C)C)C(=O)CCl with Parabacteroides merdae (enter value)
Completion: 0.982 (inactive)

Prompt: Form field: growth AUC recorded for O=C(O)C1(C(=O)Nc2ccc(Cl)cc2Cl)CC1 with Parabacteroides merdae (enter value)
Completion: 1.01 (inactive)

Prompt: Form field: growth AUC recorded for CN1CCC[C@H]1c1cccnc1 with Parabacteroides merdae (enter value)
Completion: 0.993 (inactive)

Prompt: Form field: growth AUC recorded for Cc1ccc(Cl)cc1 with Parabacteroides merdae (enter value)
Completion: 0.99 (inactive)

Prompt: Form field: growth AUC recorded for CC(C)N(C(=O)C(=O)O)c1ccccc1 with Parabacteroides merdae (enter value)
Completion: 1.03 (inactive)

Prompt: Form field: growth AUC recorded for O.O.O=[N+]([O-])c1ccc([O-])cc1.[Na+] with Parabacteroides merdae (enter value)
Completion: 0.994 (inactive)

Prompt: Form field: growth AUC recorded for COC1CCC2(CC1)NC(=O)C(O)(c1cc(C)ccc1C)C2=O (centres undefined) with Parabacteroides merdae (enter value)
Completion: 1.06 (inactive)

Prompt: Form field: growth AUC recorded for CCc1ccc(C(c2ccc(CC)cc2)C(Cl)Cl)cc1 with Parabacteroides merdae (enter value)
Completion: 0.882 (inactive)

Prompt: Form field: growth AUC recorded for Cc1[nH]oc(=O)c1N=Nc1ccccc1Cl with Parabacteroides merdae (enter value)
Completion: 0.949 (inactive)

* * *

# Test system: Escherichia coli ED1a
# assay-method-text: growth AUC relative to DMSO control (median of replicates) (fraction); higher = more growth (less inhibition), active = hit call of the paper
# condition-summary: 20 µM; 24 h
Field: growth AUC. Provide a value for each of the molecules that follow.
Format: numeric value only, no unit, no commentary.

Prompt: Form field: growth AUC recorded for CCCCOC(=O)C(C)Oc1ccc(Oc2ccc(C(F)(F)F)cn2)cc1 (stereo unspecified) with Escherichia coli ED1a (enter value)
Completion: 1.02

Prompt: Form field: growth AUC recorded for CC(C)N(C(=O)CS(=O)(=O)[O-])c1ccccc1.[Na+] with Escherichia coli ED1a (enter value)
Completion: 0.978

Prompt: Form field: growth AUC recorded for c1ccc(Sc2ccccc2)cc1 with Escherichia coli ED1a (enter value)
Completion: 1.03

Prompt: Form field: growth AUC recorded for CNC(=O)/C(=N/OC)c1ccccc1COc1cc(C(=O)O)ccc1C with Escherichia coli ED1a (enter value)
Completion: 1.05

Prompt: Form field: growth AUC recorded for CCCCCCCC/C=C\CCCCCCCC(N)=O with Escherichia coli ED1a (enter value)
Completion: 0.991

Prompt: Form field: growth AUC recorded for Oc1ccc2ccccc2c1N=Nc1ccccc1 with Escherichia coli ED1a (enter value)
Completion: 1.01
